- Tested on: Mycobacterium tuberculosis
- experiment: Antitubercular activity against multidrug-resistant Mycobacterium tuberculosis isolate CDCT16 harboring rpoB/katG/inhA mutant gene after 7 days by resazurin dye based assay
- Type: functional
measure: MIC (µM)
Response body: numeric value in µM, unit text excluded.

Worked examples, 3 molecules total:
[[record]]
molecule = "C[C@H]1CC[C@H](NC(=O)CSc2nc3ccccc3c(=O)[nH]2)CC1"
value_reported = 0.24

[[record]]
molecule = "O=C(CSc1nc2ccccc2c(=O)[nH]1)NCC1CCCCC1"
value_reported = 0.93

[[record]]
molecule = "O=C(CSc1nc2ccccc2c(=O)[nH]1)NC1CCCCC1"
value_reported = 0.97


## Task Entry "O=C(CSc1nc2ccccc2c(=O)[nH]1)NC1CCCCCC1" has what MIC?
## Result 0.93

## Task Then what about the molecule CC1CCCC(NC(=O)CSc2nc3ccccc3c(=O)[nH]2)C1 (stereo not drawn) ?
## Result 0.9

## Task And CC1CCC(NC(=O)CSc2nc3ccccc3c(=O)[nH]2)CC1 (stereo not drawn) ?
## Result 0.48

## Task And the next one, CC1CCCCC1NC(=O)CSc1nc2ccccc2c(=O)[nH]1 (stereo not drawn) ?
## Result 3.9

Provenance of the data: ChEMBL document CHEMBL4152290
